Listed below: V (static quenching constant, volume of the sphere of action) values for each entry.
- Test system: CT DNA
- Assay method text: Competitive fluorescence quenching of CT DNA-DAPI (minor groove binding)
- Parameters: species or system calf; unit not given here
- Experimental conditions: extended Stern–Volmer plot

Cc1c(C)c(C)[c-](C)c1C.O=C(O)c1cn(C2CC2)c2cc(N3CCN(C[P+](c4ccccc4)(c4ccccc4)[Ir]([Cl])[Cl])CC3)c(F)cc2c1=O; 2.21×10^3
CCn1cc(C(=O)O)c(=O)c2cc(F)c(N3CCN(C[P+](c4ccccc4)(c4ccccc4)[Ir]([Cl])[Cl])C(C)C3)c(F)c21.Cc1c(C)c(C)[c-](C)c1C (racemic); 1.45×10^3
CC1CN(c2c(F)c(N)c3c(=O)c(C(=O)O)cn(C4CC4)c3c2F)CC(C)N1C[P+](c1ccccc1)(c1ccccc1)[Ir]([Cl])[Cl].Cc1c(C)c(C)[c-](C)c1C (stereo not shown); 2.42×10^3

Turning now to a further record.
Given the compound CCn1cc(C(=O)O)c(=O)c2cc(F)c(N3CCN(C[P+](c4ccccc4)(c4ccccc4)[Ir]([Cl])[Cl])CC3)cc21.Cc1c(C)c(C)[c-](C)c1C , write its reported V (static quenching constant, volume of the sphere of action).
1.13×10^3

###

- Target desc: CT DNA
- Assay method text: Competitive fluorescence quenching of CT DNA-DAPI (minor groove binding)
- Parameters: species or system calf; unit not given here
- Experimental conditions: extended Stern–Volmer plot
Metric: KDSV (dynamic quenching constant)

Examples with answers:
CCn1cc(C(=O)O)c(=O)c2cc(F)c(N3CCN(C[P+](c4ccccc4)(c4ccccc4)[Ir]([Cl])[Cl])CC3)cc21.Cc1c(C)c(C)[c-](C)c1C; 1.72×10^3
CCn1cc(C(=O)O)c(=O)c2cc(F)c(N3CCN(C[P+](c4ccccc4)(c4ccccc4)[Ir]([Cl])[Cl])C(C)C3)c(F)c21.Cc1c(C)c(C)[c-](C)c1C (racemic); 2.19×10^3
Cc1c(C)c(C)[c-](C)c1C.O=C(O)c1cn(C2CC2)c2cc(N3CCN(C[P+](c4ccccc4)(c4ccccc4)[Ir]([Cl])[Cl])CC3)c(F)cc2c1=O; 3.21×10^3

Turning now to a further record.
Given the molecule CC1CN(c2c(F)c(N)c3c(=O)c(C(=O)O)cn(C4CC4)c3c2F)CC(C)N1C[P+](c1ccccc1)(c1ccccc1)[Ir]([Cl])[Cl].Cc1c(C)c(C)[c-](C)c1C (stereo not shown) , write its reported KDSV (dynamic quenching constant).
3.62×10^3

###

Listed below: Ksv (HSA fluorescence quenching) values for each entry.
- Target desc: human serum albumin (HSA) (Homo sapiens, UniProt P02768)
- Construct: purchased Sigma–Aldrich (Hamburg, Germany)
- Sequence (P02768 25-609): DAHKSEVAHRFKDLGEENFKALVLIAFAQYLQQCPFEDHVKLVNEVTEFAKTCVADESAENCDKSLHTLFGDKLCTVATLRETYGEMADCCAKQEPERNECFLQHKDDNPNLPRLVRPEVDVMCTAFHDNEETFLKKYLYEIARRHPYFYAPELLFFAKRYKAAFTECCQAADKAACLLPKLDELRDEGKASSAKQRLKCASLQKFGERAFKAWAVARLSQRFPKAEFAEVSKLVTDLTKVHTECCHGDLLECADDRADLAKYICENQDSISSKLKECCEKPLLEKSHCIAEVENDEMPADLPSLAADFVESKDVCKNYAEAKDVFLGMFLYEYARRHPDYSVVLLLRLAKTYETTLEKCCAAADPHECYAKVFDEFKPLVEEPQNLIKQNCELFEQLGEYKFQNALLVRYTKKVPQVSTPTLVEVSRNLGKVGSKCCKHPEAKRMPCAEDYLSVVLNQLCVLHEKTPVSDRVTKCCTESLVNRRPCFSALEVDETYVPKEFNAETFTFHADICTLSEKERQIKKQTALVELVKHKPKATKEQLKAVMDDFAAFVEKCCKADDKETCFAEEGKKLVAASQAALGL
- Assay method text: Fluorescence quenching of human serum albumin
- Type: binding
- Experimental conditions: 50 mM phosphate buffer pH 7.4, excitation 295 nm, Stern–Volmer
Numbers only; they are read as M⁻¹.

Examples with answers:
CC1CN(c2c(F)c(N)c3c(=O)c(C(=O)O)cn(C4CC4)c3c2F)CC(C)N1C[P+](c1ccccc1)(c1ccccc1)[Ir]([Cl])[Cl].Cc1c(C)c(C)[c-](C)c1C (centres unmarked); 5.67e+06
Cc1c(C)c(C)[c-](C)c1C.O=C(O)c1cn(C2CC2)c2cc(N3CCN(C[P+](c4ccccc4)(c4ccccc4)[Ir]([Cl])[Cl])CC3)c(F)cc2c1=O; 2.08e+06
CCn1cc(C(=O)O)c(=O)c2cc(F)c(N3CCN(C[P+](c4ccccc4)(c4ccccc4)[Ir]([Cl])[Cl])C(C)C3)c(F)c21.Cc1c(C)c(C)[c-](C)c1C (racemic); 5.06e+06
CCn1cc(C(=O)O)c(=O)c2cc(F)c(N3CCN(C[P+](c4ccccc4)(c4ccccc4)[Ir]([Cl])[Cl])CC3)cc21.Cc1c(C)c(C)[c-](C)c1C; 698000

Turning now to a further record.
Given the compound CCn1cc(C(=O)O)c(=O)c2cc(F)c(N3CCN(CP(c4ccccc4)c4ccccc4)C(C)C3)c(F)c21 (centres unmarked) , write its reported Ksv (HSA fluorescence quenching).
5.3
